Just for reference, PubChem BioAssay (NCI) is where these values come from.

- System: HCC-2998 colon
- procedure summary: NCI-60 one-dose screen, 48 h (100 = growth as untreated, 0 = no growth, -100 = all killed)
- test parameters: 10 µM unless noted
About 83,000 compounds went through this panel and 20% of them were active in at least one assay; those are over-represented in the sample as a whole.
The label depends only on growth: 1 if it is at least 30%, 0 if it is smaller.

Say whether `CCOC(=O)c1ccc(-c2ccc3cc(OC)ccc3c2)nc1C` shows growth of 30% or more. 1

Say whether `C=C1C(=O)O[C@H]2[C@H]1CC/C(COC(=O)/C=C\C(=O)NCc1ccc(Cn3c(=O)sn(CCCC)c3=O)cc1)=C\CC[C@@]1(C)O[C@@H]21` shows growth of 30% or more. 0

Say whether `C#C[C@]1(O)CC[C@H]2[C@@H]3CC=C4c5sc(N=C(N)N)nc5CC[C@]4(C)[C@H]3CC[C@@]21C` shows growth of 30% or more. 0

Say whether `CC(=O)Nc1ccc(-c2cc3c(NCc4ccc(F)cc4)ncnc3s2)cc1` shows growth of 30% or more. 1

Say whether `COc1cc2c(=O)n(CCCn3ccnc3)c3c4cc5c(cc4ccc3c2cc1OC)OCO5` shows growth of 30% or more. 1

Say whether `Cc1nc(Nc2ccc(N)cc2)c2ccccc2n1` shows growth of 30% or more. 1

Say whether COc1cccc(CCC2CCCN(c3cc(C)nc(N)n3)C2)c1 (centres undefined) shows growth of 30% or more. 1

Say whether `CCCCN1CCN(c2ccc3nc(-c4ccc5nc(-c6cc(OC)c(OC)c(OC)c6)[nH]c5c4)[nH]c3c2)CC1` shows growth of 30% or more. 1

###

- Tested on: K-562 leukemia
- procedure summary: NCI-60 one-dose screen, 48 h (100 = growth as untreated, 0 = no growth, -100 = all killed)
- test parameters: 10 µM unless noted
About 83,000 compounds went through this panel and 20% of them were active in at least one assay; those are over-represented in the sample as a whole.
Reported growth values follow for various compounds
Kindly provide the numeric value in % only, without the unit symbol.

// worked examples, growth included
Cc1ccc2c(n1)C(=O)C(Oc1ccc(F)cc1)=CC2=O : 20
Cc1cc(Cl)nc(N(CCCNc2ccnc3cc(Cl)ccc23)Cc2ccccn2)n1 : 4.3
C=CCN1C(=O)[C@]2(SC1=S)[C@H](c1cccc(Cl)c1)CN(C)[C@]21C(=O)NC2C=CC(Cl)=C[C@H]21 (stereo not given in full) : 22.9
CSc1nc(N)c(CNC(C)c2ccccc2)c(=O)n1C (stereo not given) : 96.2

We now examine a further compound.
Give its growth value. Item: `O=C1Nc2ccc(Cl)cc2/C1=N/N=C/c1c[nH]c2ccccc12` 88.4

###

Reported growth values follow for various molecules
- Test system: HCC-2998 colon
- procedure summary: NCI-60 one-dose screen, 48 h (100 = growth as untreated, 0 = no growth, -100 = all killed)
- test parameters: 10 µM unless noted
The panel holds about 83,000 compounds, 20% with a hit somewhere; the sample as a whole holds those more often. The source made the active and inactive calls. Rule for the calls: active = growth percent below 10; inactive = the rest.

// worked examples, growth included
CCCCCCCCn1cc(C2=C(c3coc4ccc(OC)cc34)C(=O)NC2=O)c2ccccc21 : 104% (inactive)
O=C(NCc1cn(Cc2cccc(Oc3ccccc3)c2)nn1)c1cccnc1NCc1ccc(Cl)cc1 : 9.38% (active)

For HCC-2998 colon, provide growth of `CC(C)(O)c1cccc(F)c1` please. 105% (inactive)

###

- Test system: NCI-H522 lung
- procedure summary: NCI-60 one-dose screen, 48 h
- test parameters: 10 µM unless noted
About 83,000 compounds went through this panel and 20% of them were active in at least one assay; those are over-represented in the sample as a whole. The source made the active and inactive calls. Rule for the calls: active = growth percent below 10; inactive = the rest.
Result category, one only: active, inactive

See these solved cases before continuing.
Nc1c(-c2nc3ccc(Br)cc3c(=O)[nH]2)nnn1-c1ccccc1 : inactive
O=C1CSC(c2ccccc2O)N1c1nnc(Cn2cnnc2)o1 (configuration not stated) : inactive

Outcome logged for `COc1ccc(OC)c(Nc2nc3nonc3nc2Nc2cccc(Br)c2)c1` in this assay: active

Outcome logged for `NC(=Nc1ccc(N)cc1)C(N)=Nc1ccc(N)cc1` in this assay: inactive

Outcome logged for `CCOC(=O)N1CCc2c(sc3c2C(=O)N[C@H](c2ccc(OC)cc2)N3)C1` in this assay: inactive

Outcome logged for `Cl.[Pt].[c-]1ccccc1-c1ccccn1.c1ccc(P(c2ccccc2)C([PH+](c2ccccc2)c2ccccc2)[PH+](c2ccccc2)c2ccccc2)cc1` in this assay: active

Outcome logged for `CN(CCC(=O)/C(=C\c1ccccc1)c1ccc(Cl)cc1)Cc1ccccc1` in this assay: active

###

- System: NCI-H522 lung
- procedure summary: NCI-60 one-dose screen, 48 h (100 = growth as untreated, 0 = no growth, -100 = all killed)
- test parameters: 10 µM unless noted
Compounds without any hit were thinned out: in the full panel of roughly 83,000, 20% have a hit. Active and inactive are the calls of the source. How the source made its calls: active means growth percent below 10; inactive means the rest.
Reported growth values follow for various compounds

COc1ccc2c(c1)/C(=C\c1sc(=S)[nH]c1O)C(C(=O)O)=N2 : 87.6% (inactive)
COc1ccc(/C(C)=C(\c2ccc(Cl)cc2)c2ccc(OCCN(C)C)cc2)cc1F : 87.5% (inactive)

Give its growth value. Item: `COc1ccc(OC)c(/C=C2\COc3ccc(O)cc3C2=O)c1` 38% (inactive)

###

- Test system: HCT-15 colon
- procedure summary: NCI-60 one-dose screen, 48 h (100 = growth as untreated, 0 = no growth, -100 = all killed)
- test parameters: 10 µM unless noted
Compounds without any hit were thinned out: in the full panel of roughly 83,000, 20% have a hit.
reported endpoint: growth (%)
Kindly provide the numeric value in % only, without the unit symbol.

Cc1nc(Nc2ccc(NC(=S)Nc3ccccc3)cc2)nc2nc(Nc3ccc(S(=O)(=O)O)cc3)[nH]c(=O)c12 : 127
CN(C)c1ccc2cc(-c3ccccc3F)c(N)nc2c1 : 37.4
CN(C)c1ccc(/C=N/NC(=O)COc2cc(=O)n(C)c3ccccc23)cc1 : 104
CCCn1nc(-c2ccccc2)c2c(-c3ccccc3)onc2c1=O : 61.8
C=CC(=O)N[C@@H](Cc1ccc(-c2cc(Cl)cc(Cl)c2)cc1)[C@@H](O)[C@H](O)C(=O)O : 104

Give its growth value. Item: `CN1CCN(c2ccc3nc(/N=C/c4ccc5sc(-c6ccc([N+](=O)[O-])cc6)nc5c4)sc3c2)CC1` 102

Give its growth value. Item: `C=C1C(=O)O[C@H]2[C@H]1CC/C(COC(=O)/C=C\C(=O)NCc1ccc(Cn3c(=O)sn(CCCC)c3=O)cc1)=C\CC[C@@]1(C)O[C@@H]21` -29.8

Give its growth value. Item: `CN=C1C=CC(=C(c2ccc(N(C)C)cc2)c2ccc(N(C)C)cc2)C=C1` 7.06

###

- System: SF-539 CNS
- procedure summary: NCI-60 one-dose screen, 48 h
- test parameters: 10 µM unless noted
- Procedure: Cells are grown in 96 well plates and exposed to the test compound for 48 hours. Compounds are tested at a single concentration, which is 10^-5 M for most compounds. The reported endpoint is percent growth (GI% or GIPRCNT), where numbers from 0 - 100% represent growth inhibition, and numbers from -100% - 0 represent cell death. For example, a value of 40 represents 60% growth inhibition. A value of 0 means no net growth occurred over the course of the experiment. […]
The panel holds about 83,000 compounds, 20% with a hit somewhere; the sample as a whole holds those more often. Calls of active or inactive are those of the source. Rule for the calls: active = growth percent below 10; inactive = the rest.
Result category, one only: true (1) = active, false (0) = inactive

CCCCCCCC/C=C/CCCCCCCC1=NCC[N+]1(CCO)CCO : false (0)
CC(=O)Nc1ccc(C(=O)/C=C/c2ccccc2)cc1 : false (0)
CN1C[C@@H](c2ccc(Cl)cc2)[C@]2(NC(=S)N(c3ccccc3)C2=O)[C@@]12C(=O)NC1C=CC(Br)=C[C@H]12 (stereo partly specified) : false (0)

Outcome logged for `Cc1cc(-c2ccc(N(C)C)cc2)c2sc(=O)[nH]c2n1` in this assay: false (0)

Outcome logged for `Cc1ccc(C)c2c1C(=O)OC2=O` in this assay: false (0)

Outcome logged for `Cc1nc2ccccc2c(/C=C/c2ccc(Cl)cc2)c1C(=O)/C=C/c1ccc(Cl)cc1` in this assay: true (1)

Outcome logged for `C=C1C(=O)O[C@H]2[C@H]1CC/C(COC(=O)/C=C\C(=O)NCc1ccc(Cn3c(=O)sn(-c4ccc(Cl)cc4)c3=O)cc1)=C\CC[C@@]1(C)O[C@@H]21` in this assay: true (1)

Outcome logged for `COc1ccc(NC(=O)C(=O)c2c[nH]c3ccc(F)cc23)cc1` in this assay: false (0)

Outcome logged for CCCCOc1nc2ccc(Cl)cc2cc1/C=C/C(=O)/C=C1/CC(c2cc3cc(Cl)ccc3nc2OCCCC)Nc2ccccc2N1 (stereo unspecified) in this assay: false (0)
